# method: Encapsulation rate of the LNP encapsulating nucleic acid (Quant-iT RiboGreen RNA Assay Kit)
# Type: physicochemical
# measurement context: LNP encapsulating mRNA 1 (Table 14)
endpoint: Encapsulation rate (%)
Please reply with the bare figure in % and do not write the unit itself.

Consider the reported Encapsulation rate (%) for these compounds:
> print(dat)
                                   compound  recorded.number
1  CCCCCCC(CCCCCC)OC(=O)CCCCCCCC(CCCCCCCC(=O)OC(CCCCCC)CCCCCC)OC(=O)COC1CCN(C)CC1             97.3
2  CCCCCC/C=C\COC(=O)CCCCCCCC(CCCCCCCC(=O)OC/C=C\CCCCCC)OC(=O)CCCN(C)C [ALN-319, reference compound]             86.3
3  CCCCCC(CCCCC)CCOC(=O)CCCCCCCC(CCCCCCCC(=O)OCCC(CCCCC)CCCCC)COC(=O)C(C)OCCN(C)C (stereo not shown)             97.3

Proceed to the following item.
Noted for CCCCCC(CCCCC)CCOC(=O)CCCCCCCC(CCCCCCCC(=O)OCCC(CCCCC)CCCCC)OC(=O)C(C)OCCN(C)C (stereo not shown) : its Encapsulation rate (%) reads 96.5
